Attribute: MIC90
# System: B. anthracis
# assay method text: microbe, parasite or virus in culture
# Assay type: cell-based
# assay context: Bacillus anthracis, read-out: B. anthracis MIC90
quantity kind: MIC90

>>> assay_result("C=C[C@H](NCCCNC(=N)N)c1ccc(-n2cc3cc(-c4cc(CCC[C@H](C)N)cc(Cl)c4F)[nH]c3nc2=O)cc1 [Compound 10]")
"0.25 µg/mL"
>>> assay_result("CC(C)c1cc(CCC[C@H](C)N)cc(-c2cc3cn(-c4ccc([C@H](C)NCCCNC(=N)N)cc4)c(=O)nc3[nH]2)c1F [Compound 7]")
"0.25 µg/mL"
>>> assay_result("CCc1cc(CCC[C@H](C)N)cc(-c2cc3cn(-c4ccc(CNCCCNC(=N)N)cc4)c(=O)nc3[nH]2)c1F [Compound 2]")
"0.12 µg/mL"
>>> assay_result("C[C@@H](N)CCCc1cc(Cl)c(F)c(-c2cc3cn(-c4ccc(CNCCCNC(=N)N)cc4)c(=O)nc3[nH]2)c1 [Compound 1]")
"0.25 µg/mL"
>>> assay_result("C[C@H](N)CCCc1cc(Cl)c(F)c(-c2cc3cn(-c4ccc([C@H](CCNc5nccs5)NCCCNC(=N)N)cc4)c(=O)nc3[nH]2)c1 [Compound 15]")
"0.12 µg/mL"
>>> assay_result("C[C@H](N)CCCc1cc(-c2cc3cn(-c4ccc([C@H](C)NCCCNC(=N)N)cc4)c(=O)nc3[nH]2)c(F)c(Cl)c1F [Compound 12]")
"0.12 µg/mL"

----------
# Test system: S. pneumoniae 02J1175 Mef(A)
quantity kind: MIC

>>> assay_result("CN(C)c1cc(NC(=O)CNC(C)(C)C)c(O)c2c1C[C@H]1C[C@H]3[C@H](N(C)C)C(O)=C(C(N)=O)C(=O)[C@@]3(O)C(O)=C1C2=O [Tigecycline, reference compound]")
"≤ 0.06 µg/mL"
>>> assay_result("C=CC[C@H](NCCCNC(=N)N)c1ccc(-n2cc3cc(-c4cc(CCC[C@H](C)N)cc(Cl)c4F)[nH]c3nc2=O)cc1")
"0.25 µg/mL"
>>> assay_result("C=CCC[C@H](NCCCNC(=N)N)c1ccc(-n2cc3cc(-c4cc(CCC[C@H](C)N)cc(Cl)c4F)[nH]c3nc2=O)cc1")
"0.5 µg/mL"

----------
The following compounds each carry a recorded MIC for E. coli MG1655 parent.
quantity kind: MIC (µg/mL)

>>> assay_result("C=CCC[C@H](NCCCNC(=N)N)c1ccc(-n2cc3cc(-c4cc(CCC[C@H](C)N)cc(Cl)c4F)[nH]c3nc2=O)cc1 [Compound 14]")
1
>>> assay_result("CCc1cc(CCC[C@H](C)N)cc(-c2cc3cn(-c4ccc(CNCCCNC(=N)N)cc4)c(=O)nc3[nH]2)c1F [Compound 2]")
0.25
>>> assay_result("CN(C)c1cc(NC(=O)CNC(C)(C)C)c(O)c2c1C[C@H]1C[C@H]3[C@H](N(C)C)C(O)=C(C(N)=O)C(=O)[C@@]3(O)C(O)=C1C2=O [Tigecycline, reference compound]")
0.25
>>> assay_result("CC(C)c1cc(CCC[C@H](C)N)cc(-c2cc3cn(-c4ccc([C@H](C)NCCCNC(=N)N)cc4)c(=O)nc3[nH]2)c1F [Compound 7]")
0.5
>>> assay_result("NC[C@H]1O[C@H](O[C@H]2[C@H](O)[C@@H](O[C@H]3O[C@H](CO)[C@@H](O)[C@H](N)[C@H]3O)[C@H](N)C[C@@H]2N)[C@H](N)C[C@@H]1O [Tobramycin, reference compound]")
1
>>> assay_result("C[C@H](N)CCCc1cc(-c2cc3cn(-c4ccc(CNCCCNC(=N)N)cc4)c(=O)nc3[nH]2)c(F)c(Cl)c1F [Compound 13]")
0.25

Hey, just so you know, these numbers are from patent US9937183B2.
